Below, each entry is listed alongside its reported Ratio IC50.
assayOverview: Selectivity index, ratio of IC50 for cytotoxicity in human NHDF cells to IC50 for cytotoxicity in human KB cells
valueType: Ratio IC50

>>> result("O=C(Nc1ccn([C@@H]2O[C@H](CO)[C@@H](O)C2(F)F)c(=O)n1)OCc1cn(C[C@H]2O[C@@H](n3ccc(NC(=O)OCc4ccccc4)nc3=O)C(F)(F)[C@@H]2O)nn1")
4.04
>>> result("CC(C)(C)OC(=O)O[C@@H]1[C@@H](Cn2cc(COC(=O)Nc3ccn([C@@H]4O[C@H](CO)[C@@H](O)C4(F)F)c(=O)n3)nn2)O[C@@H](n2ccc(N)nc2=O)C1(F)F")
4.16
>>> result("CC(C)(C)OC(=O)O[C@H]1C[C@H](n2cc(F)c(=O)[nH]c2=O)O[C@@H]1Cn1cc(CNc2ccn([C@@H]3O[C@H](CO)[C@@H](O)C3(F)F)c(=O)n2)nn1")
2.97
>>> result("CC(C)(C)OC(=O)O[C@@H]1[C@@H](Cn2cc(CNc3ccn([C@@H]4O[C@H](CO)[C@@H](O)C4(F)F)c(=O)n3)nn2)O[C@@H](n2ccc(NC(=O)OCc3ccccc3)nc2=O)C1(F)F")
2.63
>>> result("O=c1[nH]c(=O)n([C@H]2C[C@H](O)[C@@H](CO)O2)cc1F")
1.5
>>> result("Cc1cn([C@H]2C[C@H](N=[N+]=[N-])[C@@H](CO)O2)c(=O)[nH]c1=O")
1.48

###

System: NHDF
assayOverview: Cytotoxicity in human NHDF cells assessed as reduction in cell viability incubated for 72 hrs by SRB assay
Assay type: cell-based
pIC50: −log10 of the molar value.
Below, each entry is listed alongside its reported pIC50.
valueType: pIC50

>>> result("O=C(Nc1ccn([C@@H]2O[C@H](CO)[C@@H](O)C2(F)F)c(=O)n1)OCc1cn(C[C@H]2O[C@@H](n3ccc(NC(=O)c4ccccc4)nc3=O)C(F)(F)[C@@H]2OC(=O)c2ccccc2)nn1")
5.04
>>> result("O=C(Nc1ccn([C@@H]2O[C@H](Cn3cc(CNc4ccn([C@@H]5O[C@H](CO)[C@@H](O)C5(F)F)c(=O)n4)nn3)[C@@H](OC(=O)c3ccccc3)C2(F)F)c(=O)n1)c1ccccc1")
4.85
>>> result("CC(C)(C)OC(=O)O[C@@H]1[C@@H](Cn2cc(CNc3ccn([C@@H]4O[C@H](CO)[C@@H](O)C4(F)F)c(=O)n3)nn2)O[C@@H](n2ccc(N)nc2=O)C1(F)F")
4.96

###

assayOverview: Selectivity index, ratio of IC50 for cytotoxicity in human NHDF cells to IC50 for cytotoxicity in human U87 cells
valueType: Ratio IC50

>>> result("O=C(Nc1ccn([C@@H]2O[C@H](Cn3cc(CNc4ccn([C@@H]5O[C@H](CO)[C@@H](O)C5(F)F)c(=O)n4)nn3)[C@@H](O)C2(F)F)c(=O)n1)OCc1ccccc1")
2.27
>>> result("O=C(Nc1ccn([C@@H]2O[C@H](CO)[C@@H](O)C2(F)F)c(=O)n1)OCc1cn(C[C@H]2O[C@@H](n3ccc(NC(=O)OCc4ccccc4)nc3=O)C(F)(F)[C@@H]2O)nn1")
3.79
>>> result("CC(C)(C)OC(=O)O[C@@H]1[C@@H](Cn2cc(CNc3ccn([C@@H]4O[C@H](CO)[C@@H](O)C4(F)F)c(=O)n3)nn2)O[C@@H](n2ccc(N)nc2=O)C1(F)F")
2.4
>>> result("CC(C)(C)OC(=O)O[C@@H]1[C@@H](Cn2cc(CNc3ccn([C@@H]4O[C@H](CO)[C@@H](O)C4(F)F)c(=O)n3)nn2)O[C@@H](n2ccc(NC(=O)OCc3ccccc3)nc2=O)C1(F)F")
2.13
>>> result("CC(C)(C)OC(=O)O[C@H]1C[C@H](n2cc(F)c(=O)[nH]c2=O)O[C@@H]1Cn1cc(CNc2ccn([C@@H]3O[C@H](CO)[C@@H](O)C3(F)F)c(=O)n2)nn1")
2.91
>>> result("Nc1ccn([C@@H]2O[C@H](CO)[C@@H](O)[C@@H]2O)c(=O)n1")
1.73

###

Below, each entry is listed alongside its reported IC50.
Tested on: HeLa
assayOverview: Cytotoxicity in human HeLa cells assessed as reduction in cell viability incubated for 72 hrs by SRB assay
Type: functional, cell-based
valueType: IC50 (µM)

>>> result("Cc1cn([C@H]2C[C@H](O)[C@@H](Cn3cc(COC(=O)Nc4ccn([C@@H]5O[C@H](CO)[C@@H](O)C5(F)F)c(=O)n4)nn3)O2)c(=O)[nH]c1=O")
13.5
>>> result("O=c1[nH]c(=O)n([C@H]2C[C@H](O)[C@@H](Cn3cc(CNc4ccn([C@@H]5O[C@H](CO)[C@@H](O)C5(F)F)c(=O)n4)nn3)O2)cc1F")
78.9
>>> result("Nc1ccn([C@@H]2O[C@H](Cn3cc(CNc4ccn([C@@H]5O[C@H](CO)[C@@H](O)C5(F)F)c(=O)n4)nn3)[C@@H](O)C2(F)F)c(=O)n1")
16.2
>>> result("CC(C)(C)OC(=O)O[C@@H]1[C@@H](Cn2cc(COC(=O)Nc3ccn([C@@H]4O[C@H](CO)[C@@H](O)C4(F)F)c(=O)n3)nn2)O[C@@H](n2ccc(NC(=O)OCc3ccccc3)nc2=O)C1(F)F")
0.97
>>> result("O=C(Nc1ccn([C@@H]2O[C@H](CO)[C@@H](O)C2(F)F)c(=O)n1)OCc1cn(C[C@H]2O[C@@H](n3cc(F)c(=O)[nH]c3=O)C[C@@H]2O)nn1")
6.7
>>> result("Nc1ccn([C@@H]2O[C@H](CO)[C@@H](O)C2(F)F)c(=O)n1")
9.42
>>> result("Cc1cn([C@H]2C[C@H](n3cc(CNc4ccn([C@@H]5O[C@H](CO)[C@@H](O)C5(F)F)c(=O)n4)nn3)[C@@H](CO)O2)c(=O)[nH]c1=O")
10.9
>>> result("Cc1cn([C@H]2C[C@H](O)[C@@H](Cn3cc(CNc4ccn([C@@H]5O[C@H](CO)[C@@H](O)C5(F)F)c(=O)n4)nn3)O2)c(=O)[nH]c1=O")
129
>>> result("CC(C)(C)OC(=O)O[C@@H]1[C@@H](Cn2cc(COC(=O)Nc3ccn([C@@H]4O[C@H](CO)[C@@H](O)C4(F)F)c(=O)n3)nn2)O[C@@H](n2ccc(N)nc2=O)C1(F)F")
2.01
>>> result("Cc1cn([C@H]2C[C@H](n3cc(COC(=O)Nc4ccn([C@@H]5O[C@H](CO)[C@@H](O)C5(F)F)c(=O)n4)nn3)[C@@H](CO)O2)c(=O)[nH]c1=O")
1.52
>>> result("CC(C)(C)OC(=O)O[C@@H]1[C@@H](Cn2cc(CNc3ccn([C@@H]4O[C@H](CO)[C@@H](O)C4(F)F)c(=O)n3)nn2)O[C@@H](n2ccc(N)nc2=O)C1(F)F")
4.11
>>> result("Nc1ccn([C@@H]2O[C@H](Cn3cc(COC(=O)Nc4ccn([C@@H]5O[C@H](CO)[C@@H](O)C5(F)F)c(=O)n4)nn3)[C@@H](O)C2(F)F)c(=O)n1")
12.4
>>> result("O=C(Nc1ccn([C@@H]2O[C@H](CO)[C@@H](O)C2(F)F)c(=O)n1)OCc1cn(C[C@H]2O[C@@H](n3ccc(NC(=O)c4ccccc4)nc3=O)C(F)(F)[C@@H]2OC(=O)c2ccccc2)nn1")
3.22
>>> result("O=C(Nc1ccn([C@@H]2O[C@H](Cn3cc(CNc4ccn([C@@H]5O[C@H](CO)[C@@H](O)C5(F)F)c(=O)n4)nn3)[C@@H](OC(=O)c3ccccc3)C2(F)F)c(=O)n1)c1ccccc1")
5.41
>>> result("Cc1cn([C@H]2C[C@H](OC(=O)OC(C)(C)C)[C@@H](Cn3cc(COC(=O)Nc4ccn([C@@H]5O[C@H](CO)[C@@H](O)C5(F)F)c(=O)n4)nn3)O2)c(=O)[nH]c1=O")
9.65
>>> result("CC(C)(C)OC(=O)O[C@H]1C[C@H](n2cc(F)c(=O)[nH]c2=O)O[C@@H]1Cn1cc(CNc2ccn([C@@H]3O[C@H](CO)[C@@H](O)C3(F)F)c(=O)n2)nn1")
4.68
>>> result("Cc1cn([C@H]2C[C@H](N=[N+]=[N-])[C@@H](CO)O2)c(=O)[nH]c1=O")
10.8
>>> result("O=C(Nc1ccn([C@@H]2O[C@H](Cn3cc(CNc4ccn([C@@H]5O[C@H](CO)[C@@H](O)C5(F)F)c(=O)n4)nn3)[C@@H](O)C2(F)F)c(=O)n1)OCc1ccccc1")
4.23

###

Below, each entry is listed alongside its reported pIC50.
System: U-87 MG
assayOverview: Cytotoxicity in human U87 cells assessed as reduction in cell viability incubated for 72 hrs by SRB assay
Format: functional, cell-based, U-87MG ATCC
pIC50: −log10 of the molar value.
valueType: pIC50

>>> result("CC(C)(C)OC(=O)O[C@@H]1[C@@H](Cn2cc(CNc3ccn([C@@H]4O[C@H](CO)[C@@H](O)C4(F)F)c(=O)n3)nn2)O[C@@H](n2ccc(N)nc2=O)C1(F)F")
5.34
>>> result("Nc1ccn([C@@H]2O[C@H](Cn3cc(COC(=O)Nc4ccn([C@@H]5O[C@H](CO)[C@@H](O)C5(F)F)c(=O)n4)nn3)[C@@H](O)C2(F)F)c(=O)n1")
4.90
>>> result("Cc1cn([C@H]2C[C@H](O)[C@@H](Cn3cc(COC(=O)Nc4ccn([C@@H]5O[C@H](CO)[C@@H](O)C5(F)F)c(=O)n4)nn3)O2)c(=O)[nH]c1=O")
4.87
>>> result("CC(C)(C)OC(=O)O[C@@H]1[C@@H](Cn2cc(COC(=O)Nc3ccn([C@@H]4O[C@H](CO)[C@@H](O)C4(F)F)c(=O)n3)nn2)O[C@@H](n2ccc(N)nc2=O)C1(F)F")
5.66
>>> result("O=C(Nc1ccn([C@@H]2O[C@H](CO)[C@@H](O)C2(F)F)c(=O)n1)OCc1cn(C[C@H]2O[C@@H](n3ccc(NC(=O)OCc4ccccc4)nc3=O)C(F)(F)[C@@H]2O)nn1")
5.67
>>> result("O=c1[nH]c(=O)n([C@H]2C[C@H](O)[C@@H](Cn3cc(CNc4ccn([C@@H]5O[C@H](CO)[C@@H](O)C5(F)F)c(=O)n4)nn3)O2)cc1F")
4.10
>>> result("Cc1cn([C@H]2C[C@H](OC(=O)OC(C)(C)C)[C@@H](Cn3cc(COC(=O)Nc4ccn([C@@H]5O[C@H](CO)[C@@H](O)C5(F)F)c(=O)n4)nn3)O2)c(=O)[nH]c1=O")
5.01
>>> result("Nc1ccn([C@@H]2O[C@H](Cn3cc(CNc4ccn([C@@H]5O[C@H](CO)[C@@H](O)C5(F)F)c(=O)n4)nn3)[C@@H](O)C2(F)F)c(=O)n1")
4.78
>>> result("O=C(Nc1ccn([C@@H]2O[C@H](CO)[C@@H](O)C2(F)F)c(=O)n1)OCc1cn(C[C@H]2O[C@@H](n3ccc(NC(=O)c4ccccc4)nc3=O)C(F)(F)[C@@H]2OC(=O)c2ccccc2)nn1")
5.47
>>> result("O=c1[nH]c(=O)n([C@H]2C[C@H](O)[C@@H](CO)O2)cc1F")
5.21
>>> result("Cc1cn([C@H]2C[C@H](N=[N+]=[N-])[C@@H](CO)O2)c(=O)[nH]c1=O")
4.93
>>> result("Cc1cn([C@H]2C[C@H](n3cc(COC(=O)Nc4ccn([C@@H]5O[C@H](CO)[C@@H](O)C5(F)F)c(=O)n4)nn3)[C@@H](CO)O2)c(=O)[nH]c1=O")
5.72

Where these numbers come from: ChEMBL document CHEMBL4385668
